Quick reference for SPOT intensity among some binders
Biological target: Bem1-1, P29366
Sequence (P29366 55-141): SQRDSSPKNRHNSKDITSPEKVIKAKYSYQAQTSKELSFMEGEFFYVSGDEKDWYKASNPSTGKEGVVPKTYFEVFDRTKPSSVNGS
Test: SPOT array
Settings: median of control spots 4282
Give the figure by itself; no unit, no explanation.

# Binder, SPOT intensity
rows = [
    ("KNRKNLPTIPIRLSG", 4),
    ("HRRRRVFSIPSLKSI", 1),
    ("LFMKGTPEFPKSGFS", 0),
    ("IFLRISINFPLNYPN", 8),
    ("ALFRLSFFFPLDPAY", 0),
]

// SPOT intensity lookup, key: KKEKKPPKIPKKVYT
1

// same read-out, input: NRLRKRLNLPSEISI
0
